Experiment: in vitro
viability at 4 days, 100 μM less than 10% is satisfied; viability at 4 days, 100 μM greater than or equal to 10% is not satisfied.

Would you please look over these solved cases?
Problem: For the compound CC(C)C1=C2[C@H]3CC[C@@H]4[C@@]5(C)CC[C@H](OC(=O)[C@H]6C[C@@H](C(=O)O)C6(C)C)C(C)(C)[C@@H]5CC[C@@]4(C)[C@]3(C)CC[C@@]2(C(=O)N(CCN(C)C)Cc2ccc(Cl)cc2)CC1=O [Example 14] , is viability at 4 days, 100 μM under 10%?
not satisfied

Is viability at 4 days, 100 μM of CC(C)C1=C2[C@H]3CC[C@@H]4[C@@]5(C)CC[C@H](OC(=O)[C@H]6C[C@@H](C(=O)O)C6(C)C)C(C)(C)[C@@H]5CC[C@@]4(C)[C@]3(C)CC[C@@]2(C(=O)N2CCC[C@H]2c2ncc(-c3cccnc3)[nH]2)CC1=O [Example 3] strictly below 10%?
not satisfied

Answer whether the compound CC(C)C1=C2[C@H]3CC[C@@H]4[C@@]5(C)CC[C@H](OC(=O)[C@H]6C[C@@H](C(=O)O)C6(C)C)C(C)(C)[C@@H]5CC[C@@]4(C)[C@]3(C)CC[C@@]2(C(=O)NC(C)(C)CO)CC1=O [Example 15] has viability at 4 days, 100 μM strictly less than 10%
satisfied

---
Determine whether this compound shows viability at 4 days, 100 μM lower than 10% (ties excluded): CC(C)C1=C2[C@H]3CC[C@@H]4[C@@]5(C)CC[C@H](OC(=O)[C@H]6C[C@@H](C(=O)O)C6(C)C)C(C)(C)[C@@H]5CC[C@@]4(C)[C@]3(C)CC[C@@]2(C(=O)N2CCC[C@H]2CN2CCC(F)(F)CC2)CC1=O [Example 7]
satisfied

Please determine if CC(C)C1=C2[C@H]3CC[C@@H]4[C@@]5(C)CC[C@H](OC(=O)[C@H]6C[C@@H](C(=O)O)C6(C)C)C(C)(C)[C@@H]5CC[C@@]4(C)[C@]3(C)CC[C@@]2(C(=O)NC(C)(C)c2ncc(-c3ccc(Cl)cc3)[nH]2)CC1=O [Example 11] is below 10% in terms of viability at 4 days, 100 μM.
satisfied

Please check: viability at 4 days, 100 μM for CC(C)C1=C2[C@H]3CC[C@@H]4[C@@]5(C)CC[C@H](OC(=O)[C@H]6C[C@@H](C(=O)O)C6(C)C)C(C)(C)[C@@H]5CC[C@@]4(C)[C@]3(C)CC[C@@]2(C(=O)N2CCCC2c2ncc(-c3ccccc3)[nH]2)CC1=O (stereo partly shown) [Example 1] , strictly under 10% or not?
not satisfied

Confirm or reject: viability at 4 days, 100 μM of CC(C)C1=C2[C@H]3CC[C@@H]4[C@@]5(C)CC[C@H](OC(=O)[C@H]6C[C@@H](C(=O)O)C6(C)C)C(C)(C)[C@@H]5CC[C@@]4(C)[C@]3(C)CC[C@@]2(C(=O)N2CCC[C@H]2CN2CCC[C@H]2CO)CC1=O [Example 5] lies strictly below 10%
not satisfied
